Assay Metric: melting point

Solved entries:
1) Cc1c(-c2ccc3c(c2)OCO3)[nH]c2ccc(OCc3ccccc3)cc12 142 to 145 °C
2) CCCCCCCCCCCCc1c2c(=O)c3ccccc3c2c(CCCCCCCCCCCC)c2c(=O)c3ccccc3c12 123 to 124 °C

Query: Reported melting point, compound "COC(=O)C1=Cc2cc(-c3ccc(OC)cc3)ccc2S(=O)(=O)CC1" : ____
Reply: 191 to 193 °C

Query: Entry under review: "CC1(C)C(=O)Oc2ccc3ccc(Cn4ccnc4)cc3c21" . Reported melting point?
Reply: 135 to 136 °C

Query: // query melting point value for entry "COc1cc(OC)cc(SSc2cc(OC)cc(OC)c2)c1"
Reply: 152 to 160 °C

====

Assay Metric: melting point

Compound	Result
CC(=O)Oc1ccc(CN2C(=O)C(=O)c3ccccc32)cc1	159 to 161 °C

Query: GET /values?readout=melting point&item= "Cc1[nH]cnc1/C=C/C(=O)c1c(C)sc2ccccc12"
Reply: 154 to 156 °C

Query: Which melting point is reported for this compound? "Nc1ccc2c(cnn2Cc2cccc(F)c2)c1"
Reply: 130 °C

Query: Entry "O=c1cc(-c2ccccc2)oc2cc(OCCn3ccnc3)ccc12" has what melting point?
Reply: 155 to 159 °C

Query: I would be grateful if you could share the reported melting point for "COc1ccccc1C(=O)Nc1ccc(Cl)c(C(=O)OC(C)C)c1" .
Reply: 94 to 96 °C

Query: Sample COC(=O)c1ccc(C2=NOC(P(=O)(OC)OC)C2)cc1 (configuration not stated) — what was its melting point?
Reply: 93 °C

Query: Which value of melting point has been reported for "Cc1nnc(-c2ccnc(Nc3cc(F)ccc3F)c2)o1" in the records?
Reply: 202 to 203 °C

====

Known melting point of a selection of molecules

Some entries whose results are on file:
Molecule	Assay Metric	Result
Nc1ccccc1NC(=O)c1cc2cc(OCCN3CCOCC3)ccc2s1	melting point	166 to 169 °C
CCc1cn(C(C)(C)C(=O)N(C)C)nc1-c1ccccc1	melting point	108 to 111 °C
Nc1ccc(Nc2ccc(S(=O)(=O)CCO)cc2[N+](=O)[O-])cc1S(=O)(=O)O	melting point	204 °C
CNC(=O)C(Cc1ccc(OC)cc1)NC(=O)C(CC(C)C)C(CC(=O)NCC(N)=O)SC(C)=O (stereo not given)	melting point	218 to 219 °C
CCCC(=O)Nc1cc2c(s1)CCN(C(C(=O)C1CC1)c1ccccc1F)C2 (stereo not given)	melting point	154 to 157 °C

Query: Quick one: melting point of "CCOC(=O)Cc1c(C2CCCCC2)nn(-c2ccccc2)c1-c1ccccc1" ?
Reply: 176 to 178 °C

Query: Consider the molecule "CC(=O)CCc1cc(F)c2ncc(C(=O)NCc3ccc(Cl)cc3)c(O)c2c1" and give its measured melting point.
Reply: 218 to 222 °C

Query: Requested field: melting point. Item: CC1(C)SC2C(NC(c3ccccc3)(c3ccccc3)c3ccccc3)C(=O)N2C1C#N (stereo not given)
Reply: 116 to 119 °C

Query: Consider the molecule shown here: "Cn1c(-c2ccccc2F)n[nH]c1=S" What is its recorded melting point?
Reply: 137 to 139 °C

Query: Entry under review: "Nc1ccc2nc3c(nc2c1)CCCC3" . Reported melting point?
Reply: 150 to 152 °C

Query: Which melting point reading was recorded for the molecule CS(=O)c1c(C#N)nn(-c2ccc(C(F)(F)F)cc2Cl)c1N (stereo not given) ?
Reply: 146 to 147 °C

Query: Consider the molecule shown here: "Cc1oc(C2CCCCC2)nc1C(=O)O" What is its recorded melting point?
Reply: 173 to 174 °C

Query: What measured melting point goes with "CN=Cc1ccc(-c2ccc(OC)c(Br)c2)cc1" ?
Reply: 115 to 117 °C

Query: For "CCn1nc(Cc2ccc(NC(=O)/C=C/c3cnn(C)c3-c3ccc(F)cc3)cc2)oc1=O" , what is its reported melting point?
Reply: 149 to 150 °C
